target: activated MMP-8 enzyme (Homo sapiens)
protocol details: Assay for determining MMP-8 inhibition (OmniMMP fluorescent substrate)
assay setup: read-out: MMP-8 Activity (IC50 MMP-8), Group
observation type: IC50

Data request, read-out IC50, for Cc1cccc2nc(C(=O)NCc3cccc(CNc4c(N)c(=O)c4=O)c3)[nH]c(=O)c12 [Example 2/15]
250 to 20000 nM

O=C(Cc1csc2nc(C(=O)NCc3ccc4c(c3)NC(=O)CO4)[nH]c(=O)c12)NCc1ccc2c(c1)NC(=O)CO2 [2/149] , same question.
< 250 nM

What do you have for O=C1COc2ccc(CNC(=O)c3nc4ccc(CNC(=O)C56C7C8C5C5C6C7C85C(=O)O)cc4c(=O)[nH]3)cc2N1 (centres unmarked) [4/3] ?
< 250 nM

Continuing:
Consider the compound N#Cc1ccc2nc(C(=O)NCc3ccc4c(c3)NC(=O)CO4)[nH]c(=O)c2c1 [Example 9] and give its measured IC50.
< 250 nM

Can you handle Nc1ccc2nc(C(=O)NCc3ccc4c(c3)NC(=O)CO4)[nH]c(=O)c2c1 [Example 5] next?
< 250 nM

Try this compound next: O=C1COc2ccc(CNC(=O)c3nc4c(c(=O)[nH]3)CCCC4)cc2N1 [2/55]
< 250 nM

Please answer likewise for COc1cccc2nc(C(=O)NCc3ccc4c(c3)NC(=O)CO4)[nH]c(=O)c12 [Example 35]
< 250 nM

Subsequent entry: O=C1COc2ccc(CNC(=O)c3nc4scc(-c5ccccc5Cl)c4c(=O)[nH]3)cc2N1 [2/101]
250 to 20000 nM

Cc1cccc2nc(C(=O)NCc3ccc(F)c(CNc4c(N)c(=O)c4=O)c3)[nH]c(=O)c12 [2/17] ?
250 to 20000 nM

Similarly, N#CCc1csc2nc(C(=O)NCc3ccc4c(c3)NC(=O)CO4)[nH]c(=O)c12 [Example 19] ?
< 250 nM

Likewise for CC(=NO)c1sc2nc(C(=O)NCc3ccc4c(c3)NC(=O)CO4)[nH]c(=O)c2c1C [Example 16] ?
< 250 nM

###

Reported pIC50 values for the following molecules.
target: catalytic domain of MMP-13 enzyme (Homo sapiens, UniProt P45452)
pIC50: −log10 of the molar value.

Some molecules with recorded pIC50:
Find the recorded pIC50 belonging to O=C1COc2ccc(CNC(=O)c3nc4ccc(C(=O)Nc5ccccc5)cc4c(=O)[nH]3)cc2N1 [31/1] and report it.
4.70 to 7.00

How about O=C(Cc1csc2nc(C(=O)NCc3ccc4c(c3)NC(=O)CO4)[nH]c(=O)c12)NCc1ccc2c(c1)NC(=O)CO2 [2/149] ?
> 7.00

Same thing, different molecule: O=C1COc2ccc(CNC(=O)c3nc4cccc(F)c4c(=O)[nH]3)cc2N1 [2/74]
> 7.00

Others:
Quick one: pIC50 for Cc1nc2c(=O)[nH]c(C(=O)NCc3ccc4c(c3)NC(=O)CO4)nc2s1 [2/179] ?
> 7.00

Another molecule: Cc1nsc2nc(C(=O)NCc3ccc4c(c3)NC(=O)CO4)[nH]c(=O)c12 [2/136]
4.70 to 7.00

Another molecule: O=C1COc2ccc(CNC(=O)c3nc4cc([N+](=O)[O-])ccc4c(=O)[nH]3)cc2N1 [39/22]
> 7.00

And then C=Cc1ccc2nc(C(=O)NCc3ccc4c(c3)NC(=O)CO4)[nH]c(=O)c2c1 [2/69] , what is it?
> 7.00

Can you handle Cc1sc2nc(C(=O)NCc3cc(Br)c4c(c3)NC(=O)CO4)[nH]c(=O)c2c1C [2/281] next?
> 7.00

Quick one: CCOC(=O)Cc1c([N+](=O)[O-])sc2nc(C(=O)NCc3ccc4c(c3)CN(c3c(N)c(=O)c3=O)CC4)[nH]c(=O)c12 [2/164]
4.70 to 7.00

And then CC(C)(C)OC(=O)NCc1ccc2nc(C(=O)NCc3ccc4c(c3)NC(=O)CO4)[nH]c(=O)c2c1 [Example 14] , what is it?
> 7.00

Another molecule: CCOC(=O)c1c(C)sc2nc(C(=O)NCc3ccc4c(c3)NC(=O)CO4)[nH]c(=O)c12 [2/22]
> 7.00

Thanks! And Cc1c(CO)sc2nc(C(=O)NCc3ccc4c(c3)NCCO4)[nH]c(=O)c12 [Example 20c] ?
> 7.00

O=C1COc2ccc(CNC(=O)c3nc4scc(-c5ccccc5Cl)c4c(=O)[nH]3)cc2N1 [2/101] ?
> 7.00

Then this molecule: O=C1COc2ccc(CNC(=O)c3nc4ccc(-c5nnn[nH]5)cc4c(=O)[nH]3)cc2N1 [Example 11]
> 7.00

###

target: activated MMP-8 enzyme (Homo sapiens, UniProt P22894)
Sequence (P22894 101-467): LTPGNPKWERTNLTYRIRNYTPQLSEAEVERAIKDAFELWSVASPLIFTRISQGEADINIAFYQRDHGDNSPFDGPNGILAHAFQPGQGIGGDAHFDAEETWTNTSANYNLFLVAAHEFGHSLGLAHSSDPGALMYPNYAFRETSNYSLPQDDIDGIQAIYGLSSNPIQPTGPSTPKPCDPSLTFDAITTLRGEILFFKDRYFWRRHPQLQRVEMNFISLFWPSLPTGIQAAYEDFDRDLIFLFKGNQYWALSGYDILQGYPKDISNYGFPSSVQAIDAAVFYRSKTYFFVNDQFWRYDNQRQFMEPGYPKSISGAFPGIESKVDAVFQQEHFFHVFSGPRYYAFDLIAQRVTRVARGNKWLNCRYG
protocol details: Assay for determining MMP-8 inhibition (OmniMMP fluorescent substrate)
assay setup: read-out: MMP-8 Activity (IC50 MMP-8), Group
pIC50: −log10 of the molar value.
observation type: pIC50

Entry under review: C[C@H](O)CNc1cccc2nc(C(=O)NCc3ccc4c(c3)NC(=O)CO4)[nH]c(=O)c12 [36/13] . Reported pIC50?
> 6.60

And the next one, Cc1c(CCC(=O)O)sc2nc(C(=O)NCc3ccc4c(c3)NC(=O)CO4)[nH]c(=O)c12 [4/8] ?
> 6.60

Let's switch to this compound now.
Which pIC50 is reported for this compound? Cc1nsc2nc(C(=O)NCc3ccc4c(c3)CN(c3c(N)c(=O)c3=O)CC4)[nH]c(=O)c12 [2/134]
4.70 to 6.60
